assay: clinical; settings: human, in vivo, AUC(0–24h), Day 9
MEASUREMENT LABEL: AUC(0-t) (ng·h/mL)
Value expressed in ng·h/mL; do not type the unit.

# AUC(0-t) of CCOc1cc2ncc(C#N)c(Nc3ccc(F)c(Cl)c3)c2cc1NC(=O)/C=C/CN(C)C [EKB-569] = 493

----------
assay: clinical; details: human, in vivo, AUC(0–24h), Day 3
Item-by-item account of AUC(0-t)
Value expressed in ng·h/mL; do not type the unit.

| STRUCTURE | MEASUREMENT LABEL | MEASURED NUMBER |
| --- | --- | --- |
| CO[C@H]1C[C@@H]2CC[C@@H](C)[C@@](O)(O2)C(=O)C(=O)N2CCCC[C@H]2C(=O)O[C@H]([C@H](C)C[C@@H]2CC[C@@H](O)[C@H](OC)C2)CC(=O)[C@H](C)/C=C(\C)[C@@H](O)[C@@H](OC)C(=O)[C@H](C)C[C@H](C)/C=C/C=C/C=C/1C | AUC(0-t) | 437 |

# AUC(0-t) of CO[C@H]1C[C@@H]2CC[C@@H](C)[C@@](O)(O2)C(=O)C(=O)N2CCCC[C@H]2C(=O)O[C@H]([C@H](C)C[C@@H]2CC[C@@H](OC(=O)C(C)(CO)CO)[C@H](OC)C2)CC(=O)[C@H](C)/C=C(\C)[C@@H](O)[C@@H](OC)C(=O)[C@H](C)C[C@H](C)/C=C/C=C/C=C/1C = 68.3

----------
assay: clinical; settings: human, in vivo, po, 30 mg, AUC(0–24h), Day 1
Item-by-item account of AUC(0-t)
Value expressed in ng·h/mL; do not type the unit.

| STRUCTURE | UNITS LABEL | AUC(0-t) |
| --- | --- | --- |
| CO[C@H]1C[C@@H]2CC[C@@H](C)[C@@](O)(O2)C(=O)C(=O)N2CCCC[C@H]2C(=O)O[C@H]([C@H](C)C[C@@H]2CC[C@@H](OC(=O)C(C)(CO)CO)[C@H](OC)C2)CC(=O)[C@H](C)/C=C(\C)[C@@H](O)[C@@H](OC)C(=O)[C@H](C)C[C@H](C)/C=C/C=C/C=C/1C | ng·h/mL | 83.9 |

Next item in the queue.
# AUC(0-t) of CO[C@H]1C[C@@H]2CC[C@@H](C)[C@@](O)(O2)C(=O)C(=O)N2CCCC[C@H]2C(=O)O[C@H]([C@H](C)C[C@@H]2CC[C@@H](O)[C@H](OC)C2)CC(=O)[C@H](C)/C=C(\C)[C@@H](O)[C@@H](OC)C(=O)[C@H](C)C[C@H](C)/C=C/C=C/C=C/1C = 348

src = paper PMC3816525
